Tested on: PC-3 prostate
Assay: NCI-60 one-dose screen, 48 h
Details: 10 µM unless noted
Compounds without any hit were thinned out: in the full panel of roughly 83,000, 20% have a hit. Active and inactive are the calls of the source. How the source made its calls: active means growth percent below 10; inactive means the rest.
In this exercise, the only acceptable responses are Yes = active, No = inactive

[[record]]
compound = "c1ccc(Cc2cccc[n+]2C(c2ccccc2)c2ccccc2)cc1"
group = "No"

[[record]]
compound = "O=C1N=c2ccccc2=C1c1sc(=S)n(C2CC(=O)N(c3ccc(Cl)cc3)C2=O)c1O (stereo unspecified)"
group = "No"


Write down the call the test reported for this compound. Item: S=c1nc(CS)[nH]c2ccccc12 No

Test call, this compound: COCCn1cc(-c2nc(-c3cn(CCOC)c4ncccc34)cs2)c2ccccc21 No

Status in this test for C=C(CNCCc1ccc(O)cc1)[C@@H]1CC[C@]2(CO)CC[C@]3(C)[C@H](CC[C@@H]4[C@@]5(C)CCC(NCCc6ccc(O)cc6)C(C)(C)[C@@H]5CC[C@]43C)[C@@H]12 (stereo partly specified) ? Yes

Would you mind telling me which call this test gave COc1cc(CNC(=O)CCCC/C=C/C(C)C)ccc1OCc1cn(-c2ccc([N+](=O)[O-])cc2)nn1 ? No

* * *

System: T-47D breast
Experiment: NCI-60 one-dose screen, 48 h (100 = growth as untreated, 0 = no growth, -100 = all killed)
Conditions: 10 µM unless noted
This is part of a sample that, as a whole, favours compounds with a hit. Of some 83,000 tested, about 20% had one in any assay.
Binary classification by growth, with 70% as an inclusive lower bound for t; all other cases are f.

[[record]]
compound = "COc1cc(/C=C/C(=O)c2ccc(NC(=O)CSc3nnc(-c4cc(-c5ccccc5)nc5ccccc45)n3-c3ccccc3)cc2)cc(OC)c1OC"
group = "t"

[[record]]
compound = "O=C1/C(=C/c2ccc(F)c(F)c2)CN(C(=O)C(Cl)Cl)C/C1=C\\c1ccc(F)c(F)c1"
group = "f"

[[record]]
compound = "COc1cc(Cl)cc(-c2nn(C(=O)NS(=O)(=O)c3ccc(Cl)cc3)cc2-c2ccncc2)c1"
group = "t"

[[record]]
compound = "NC(=O)c1c(NC(=O)/C=C/c2cccs2)sc2c1CCC(=O)C2"
group = "f"

[[record]]
compound = "O=C1c2cc3c(cc2-c2c1c1ccc(Cl)cc1c(=O)n2CCCn1ccnc1)OCO3"
group = "f"


Decide: growth of COC(=O)N/N=C/c1c[n+]([O-])c2ccccc2[n+]1[O-] >= 70%? f

Form field: growth at least 70%? Entry: C=C1CCC2C3(C)COC(c4ccc(NC(C)=O)cc4)OC3CCC2(C)C1C/C=C1/C(=O)OCC1O (centres undefined) f

Is reported growth greater than or equal to 70% here: O=C(NCc1cccnc1)/C(=C\c1ccc(Br)cc1)S(=O)(=O)c1ccccc1 f

* * *

System: MDA-MB-435 melanoma
Assay: NCI-60 one-dose screen, 48 h
Settings: 100 µM
The panel holds about 83,000 compounds, 20% with a hit somewhere; the sample as a whole holds those more often. Activity calls are given as the source filed them. Rule for the calls: active = growth percent below 10; inactive = the rest.
A correct response names exactly one class from Y = active, N = inactive

Take a look at these entries with their results.
[[record]]
chemical_structure = "CC(=O)/C=C/c1ccc(N(C)Cc2ccc(C(C)(C)C)cc2)cc1"
group = "Y"

[[record]]
chemical_structure = "O=C(/C=C/c1cccc(Oc2ccc(Cl)cc2)c1)c1ccccc1"
group = "Y"


Could you please tell me the result logged for COc1ccc(C(=O)/C=C/c2ccc(OCc3ccc(Cl)cc3)cc2)cc1OC in this assay? N

Assay outcome for COc1ccc(C(=O)/C=C/c2ccc(OCc3cccc(C(F)(F)F)c3)c(OC)c2)cc1OC : what was it? N

Tell me the recorded outcome of this test for CC(=O)/C=C/c1ccc(N(CCO)Cc2ccc(C(C)(C)C)cc2)cc1 . Y

* * *

Tested on: SF-539 CNS
Assay: NCI-60 one-dose screen, 48 h
Details: 10 µM unless noted
About 83,000 compounds went through this panel and 20% of them were active in at least one assay; those are over-represented in the sample as a whole. Active and inactive are the calls of the source. The calls were made as follows: active = growth percent below 10; inactive = the rest.
Respond only with the outcome that fits, drawn from 1.0 for active, 0.0 for inactive

[[record]]
compound = "Cc1nc(-n2[nH]c(=O)ccc2=O)sc1N=Nc1ccccc1"
group = 0.0

[[record]]
compound = "N#C/C(=C\\c1ccccc1Cl)c1cc2ccccc2[nH]1"
group = 0.0

[[record]]
compound = "COc1ccc(-c2nn3c(-c4cc(F)c(Cl)cc4Cl)nnc3s2)cc1"
group = 0.0

[[record]]
compound = "CCN1C(=O)/C(=c2\\sc3n(c2=O)C2C(NN=3)N(CC)C(=O)N2CC)c2ccccc21 (stereo not given)"
group = 1.0


What classification did NC(N)=NC(N)=NCCCc1ccco1 end up with in this test? 0.0

Identify the outcome logged in this assay for the compound shown: C#CCOc1cccc(Nc2ncc3ncn(C4CCN(C(=O)CCl)C4)c3n2)c1 (stereo not given) 0.0

Entry O=C(NNc1ccccc1)c1ncc[nH]1 : call = ? 0.0

* * *

Field: growth. Provide a value for each of the compounds that follow.
Tested on: OVCAR-4 ovarian
Test: NCI-60 one-dose screen, 48 h (100 = growth as untreated, 0 = no growth, -100 = all killed)
Conditions: 10 µM unless noted
Compounds without any hit were thinned out: in the full panel of roughly 83,000, 20% have a hit. Activity calls are given as the source filed them. Rule for the calls: active = growth percent below 10; inactive = the rest.

I have 5 compounds here; please give me growth for each one.
1. C[C@@H]1CC[C@@H]2[C@@H]1[C@H](OC(=O)/C=C/c1ccccc1)[C@]1(c3ccccc3)C[C@@H](NC(=O)CO)[C@@]2(C)O1
2. Cc1cnc(C(=O)NNc2nc3sc4c(c3c(=O)[nH]2)C(C)CCC4)cn1 (centres undefined)
3. COc1ccc(C/C(C)=C(/c2ccc(OCCN3CCCCCC3)cc2)c2ccc(OC(=O)c3ccccc3)cc2)cc1
4. CCOC(=O)C1=C(C)NC(=O)NC1c1c(Cl)n(-c2ccccc2)c2ccccc12 (centres undefined)
5. O=C(Nc1ccc2ccccc2c1)c1cc2ccccc2cc1O

["97.2% (inactive)", "22.1% (inactive)", "116% (inactive)", "96% (inactive)", "82.9% (inactive)"]

Would you mind giving growth for every compound in the list below?
1. CCOC(=O)c1cnn(-c2ccc(S(N)(=O)=O)cc2)c1N
2. Cc1ccc(C(=O)c2ccc(CC(=O)N=Nc3c(O)[nH]c4ccc(OC(F)(F)F)cc34)n2C)cc1
3. COc1cc(C=O)ccc1Oc1ccc([N+](=O)[O-])cc1[N+](=O)[O-]

1: 103% (inactive); 2: 118% (inactive); 3: 97% (inactive)

Find the measured growth: item CCCn1nc(C(=O)N2CCCCC2)c2c1CCC(N1CCC(c3ccncc3)CC1)C2 (centres undefined) , target or system OVCAR-4 ovarian. 103% (inactive)

* * *

Tested on: MALME-3M melanoma
Experiment: NCI-60 one-dose screen, 48 h
Details: 10 µM unless noted
Method: Cells are grown in 96 well plates and exposed to the test compound for 48 hours. Compounds are tested at a single concentration, which is 10^-5 M for most compounds. The reported endpoint is percent growth (GI% or GIPRCNT), where numbers from 0 - 100% represent growth inhibition, and numbers from -100% - 0 represent cell death. For example, a value of 40 represents 60% growth inhibition. A value of 0 means no net growth occurred over the course of the experiment. […]
Compounds without any hit were thinned out: in the full panel of roughly 83,000, 20% have a hit. Activity calls are given as the source filed them. Rule for the calls: active = growth percent below 10; inactive = the rest.
One label from this list, please: True for active, False for inactive

Below, 5 compounds whose answers are already recorded.
[[record]]
compound = "CN(C)C1CCN(C(=O)c2ccc(NC(=O)Nc3ccc(-c4nc(N5CCOCC5)c5cccn5n4)cc3)cc2)CC1"
group = "True"

[[record]]
compound = "C#CCn1cnc2cnc(Nc3cccc(NC(=O)CCl)c3)nc21"
group = "False"

[[record]]
compound = "CCOC(=O)CC1CSC(c2cccc(Cl)c2)=N1 (centres undefined)"
group = "False"

[[record]]
compound = "CC(C)(C)c1cc(C(C)(C)c2ccccc2)cc(Cc2cc(C(C)(C)c3ccccc3)cc(C(C)(C)C)c2O)c1O"
group = "False"

[[record]]
compound = "C=C(C)[C@@H]1CC[C@]2(C(=O)O)CC[C@]3(C)[C@H](CC[C@@H]4[C@@]5(C)CCC(N)C(C)(C)[C@@H]5CC[C@]43C)[C@@H]12 (some centres undefined)"
group = "True"


As a next step, examine the compound that follows.
Could you kindly confirm the outcome this assay logged for N#Cc1c(N)nnn1Cc1cc(=O)oc2ccc(O)cc12 ? False

* * *

System: UACC-62 melanoma
Assay: NCI-60 one-dose screen, 48 h (100 = growth as untreated, 0 = no growth, -100 = all killed)
Conditions: 10 µM unless noted
About 83,000 compounds went through this panel and 20% of them were active in at least one assay; those are over-represented in the sample as a whole.
Field: growth. Provide a value for each of the molecules that follow.
Numbers only, in %.

Worked cases, growth given:
[[record]]
molecule = "COc1nc(=O)n(C2C=CC(=O)O2)cc1F (stereo unspecified)"
tested_system = "UACC-62 melanoma"
units = "%"
value_measured = 59.7

[[record]]
molecule = "COc1ccc(Nc2ncnc3ccc(-c4cncc(NS(C)(=O)=O)c4)cc23)cc1Cl"
tested_system = "UACC-62 melanoma"
units = "%"
value_measured = 31.8

[[record]]
molecule = "CC(=O)N1N=C(c2ccc(F)cc2)CC1c1sc(N(C)Cc2ccccc2)nc1Cl (stereo unspecified)"
tested_system = "UACC-62 melanoma"
units = "%"
value_measured = 81.2

[[record]]
molecule = "CC(=O)c1c(C)nc2ccccc2c1/C=C/c1cccc(C)c1"
tested_system = "UACC-62 melanoma"
units = "%"
value_measured = 47.8

[[record]]
molecule = "CC(=O)c1c(C)nc(SCC(=O)Nc2ccc(Cl)cc2)n1-c1ccc(Cl)cc1"
tested_system = "UACC-62 melanoma"
units = "%"
value_measured = 69.7


Turning now to a further record.
# value lookup — system UACC-62 melanoma, readout growth, item CCOC(=O)c1nc2c3ccccc3cnn2c1C(=O)c1ccc(OC)cc1 95.5

# credit: PubChem BioAssay (NCI)
